Tested on: Staphylococcus epidermidis
Test: Bactericidal activity against Staphylococcus epidermidis after overnight incubation
Assay type: functional
Reported MBC values follow for various compounds
Express your answer in µg/mL, writing the number without its unit.

| smilesRepresentation | resultNumber |
| --- | --- |
| COC(=O)[C@H]1NC(=O)[C@H]2NC(=O)[C@H](NC(=O)[C@@H]3NC(=O)[C@H]4NC(=O)[C@H](NC(=O)[C@H](N=[N+]=[N-])c5ccc(O)c(c5)Oc5cc4cc(O)c5C)[C@H](O)c4ccc(cc4)Oc4cc3cc(c4O)Oc3ccc(cc3)[C@H]2O)c2ccc(O)c(c2)-c2c(O)cc(O)cc21 | 16 |

The record that follows has no MBC shown yet.
Fill blank: measured MBC of the compound `CC(=O)N[C@H]1[C@H](O[C@@H]2c3ccc(c(Cl)c3)Oc3cc4cc(c3O)Oc3ccc(cc3Cl)C[C@H]3NC(=O)[C@H](N=[N+]=[N-])c5ccc(O)c(c5)Oc5cc(O)cc(c5)[C@H](NC3=O)C(=O)N[C@H]4C(=O)N[C@H]3C(=O)N[C@@H]2C(=O)N[C@@H](C(=O)O)c2cc(O)cc(O)c2-c2cc3ccc2O)O[C@H](CO)[C@@H](O)[C@@H]1O` is ____. 4

###

Tested on: Influenza B virus
Experiment: Antiviral activity against Influenza B virus (B/Hong Kong/5/72) assessed as cell viability at subtoxic concentration by cell-based MTS assay
Format: functional
Conditions: B/Hong Kong/05/1972
Calls of active or inactive are those of the source. No cut-off for these calls is given here.

| smilesRepresentation | studySystem | inhibition |
| --- | --- | --- |
| COC(=O)[C@@H]1NC(=O)[C@H]2NC(=O)[C@H](NC(=O)[C@@H]3NC(=O)[C@H]4NC(=O)[C@@H](Cc5ccc(c(Cl)c5)Oc5cc3cc(c5O)Oc3ccc(cc3Cl)[C@H]2O)NC(=O)[C@H](N=[N+]=[N-])c2ccc(O)c(c2)Oc2cc(O)cc4c2)c2ccc(O)c(c2)-c2c(O)cc(O)cc21 | Influenza B virus | inactive |
| CCCCCCCCCCOCc1cn([C@H]2C(=O)N[C@@H]3Cc4ccc(c(Cl)c4)Oc4cc5cc(c4O)Oc4ccc(cc4Cl)[C@@H](O[C@@H]4O[C@H](CO)[C@@H](O)[C@H](O)[C@H]4NC(C)=O)[C@@H]4NC(=O)[C@H](NC(=O)[C@@H]5NC(=O)[C@@H](NC3=O)c3cc(O)cc(c3)Oc3cc2ccc3O)c2ccc(O)c(c2)-c2c(O)cc(O)cc2[C@H](C(=O)OC)NC4=O)nn1 | Influenza B virus | inactive |
| CCCCCCCCCCOCc1cn([C@H]2C(=O)N[C@@H]3Cc4ccc(c(Cl)c4)Oc4cc5cc(c4O)Oc4ccc(cc4Cl)[C@@H](O[C@@H]4O[C@H](CO)[C@@H](O)[C@H](O)[C@H]4NC(C)=O)[C@@H]4NC(=O)[C@H](NC(=O)[C@@H]5NC(=O)[C@@H](NC3=O)c3cc(O)cc(c3)Oc3cc2ccc3O)c2ccc(O)c(c2)-c2c(O)cc(O)cc2[C@H](C(=O)O)NC4=O)nn1 | Influenza B virus | inactive |

###

Tested on: Staphylococcus aureus
Assay: Antibacterial activity against methicillin-sensitive Staphylococcus aureus ATCC 33591 after 18 hrs by broth microdilution method
Format: functional
Conditions: ATCC 33591, 18 h
attributeMeasured: MIC (µg/mL)
Express your answer in µg/mL, writing the number without its unit.

For Staphylococcus aureus, provide MIC of `COC(=O)[C@H]1NC(=O)[C@H]2NC(=O)[C@H](NC(=O)[C@@H]3NC(=O)[C@H]4NC(=O)[C@H](NC(=O)[C@H](N=[N+]=[N-])c5ccc(O)c(c5)Oc5cc4cc(O)c5C)[C@H](O)c4ccc(cc4)Oc4cc3cc(c4O)Oc3ccc(cc3)[C@H]2O)c2ccc(O)c(c2)-c2c(O)cc(O)cc21` please. 2

###

Reported MBC values follow for various compounds
System: Staphylococcus aureus
Test: Bactericidal activity against methicillin-sensitive Staphylococcus aureus ATCC 33591 after overnight incubation
Assay type: functional
Express your answer in µg/mL, writing the number without its unit.

Some entries whose results are on file:
| smilesRepresentation | MBC, µg/mL |
| --- | --- |
| CCCCCCCCCCOCc1cn([C@H]2C(=O)N[C@@H]3Cc4ccc(c(Cl)c4)Oc4cc5cc(c4O)Oc4ccc(cc4Cl)[C@@H](O[C@@H]4O[C@H](CO)[C@@H](O)[C@H](O)[C@H]4NC(C)=O)[C@@H]4NC(=O)[C@H](NC(=O)[C@@H]5NC(=O)[C@@H](NC3=O)c3cc(O)cc(c3)Oc3cc2ccc3O)c2ccc(O)c(c2)-c2c(O)cc(O)cc2[C@H](C(=O)O)NC4=O)nn1 | 0.25 |
| CN[C@H](CC(C)C)C(=O)N[C@H]1C(=O)N[C@@H](CC(N)=O)C(=O)N[C@H]2C(=O)N[C@H]3C(=O)N[C@H](C(=O)N[C@H](C(=O)O)c4cc(O)cc(O)c4-c4cc3ccc4O)[C@H](O)c3ccc(c(Cl)c3)Oc3cc2cc(c3O[C@@H]2O[C@H](CO)[C@@H](O)[C@H](O)[C@H]2O[C@H]2C[C@](C)(N)[C@H](O)[C@H](C)O2)Oc2ccc(cc2Cl)[C@H]1O | 4 |

The record that follows has no MBC shown yet.
Fill blank: measured MBC of the compound `CCCCCCCCCCOCc1cn([C@H]2C(=O)N[C@@H]3Cc4ccc(c(Cl)c4)Oc4cc5cc(c4O)Oc4ccc(cc4Cl)[C@@H](O)[C@@H]4NC(=O)[C@H](NC(=O)[C@@H]5NC(=O)[C@@H](NC3=O)c3cc(O)cc(c3)Oc3cc2ccc3O)c2ccc(O)c(c2)-c2c(O)cc(O)cc2[C@H](C(=O)OC)NC4=O)nn1` is ____. 256

###

Reported MIC values follow for various compounds
System: Staphylococcus epidermidis
Assay: Antibacterial activity against Staphylococcus epidermidis after 18 hrs by broth microdilution method
Assay type: functional
Express your answer in µg/mL, writing the number without its unit.

Some entries whose results are on file:
| smilesRepresentation | resultNumber |
| --- | --- |
| COC(=O)[C@@H]1NC(=O)[C@H]2NC(=O)[C@H](NC(=O)[C@@H]3NC(=O)[C@H]4NC(=O)[C@@H](Cc5ccc(c(Cl)c5)Oc5cc3cc(c5O)Oc3ccc(cc3Cl)[C@H]2O)NC(=O)[C@H](N=[N+]=[N-])c2ccc(O)c(c2)Oc2cc(O)cc4c2)c2ccc(O)c(c2)-c2c(O)cc(O)cc21 | 64 |
| CCCCCCCCCCOCc1cn([C@H]2C(=O)N[C@@H]3Cc4ccc(c(Cl)c4)Oc4cc5cc(c4O)Oc4ccc(cc4Cl)[C@@H](O[C@@H]4O[C@H](CO)[C@@H](O)[C@H](O)[C@H]4NC(C)=O)[C@@H]4NC(=O)[C@H](NC(=O)[C@@H]5NC(=O)[C@@H](NC3=O)c3cc(O)cc(c3)Oc3cc2ccc3O)c2ccc(O)c(c2)-c2c(O)cc(O)cc2[C@H](C(=O)O)NC4=O)nn1 | 0.5 |

Fill blank: measured MIC of the compound `CC(=O)N[C@H]1[C@H](O[C@@H]2c3ccc(c(Cl)c3)Oc3cc4cc(c3O)Oc3ccc(cc3Cl)C[C@H]3NC(=O)[C@H](N=[N+]=[N-])c5ccc(O)c(c5)Oc5cc(O)cc(c5)[C@H](NC3=O)C(=O)N[C@H]4C(=O)N[C@H]3C(=O)N[C@@H]2C(=O)N[C@@H](C(=O)O)c2cc(O)cc(O)c2-c2cc3ccc2O)O[C@H](CO)[C@@H](O)[C@@H]1O` is ____. 4

Fill blank: measured MIC of the compound `COC(=O)[C@@H]1NC(=O)[C@H]2NC(=O)[C@H](NC(=O)[C@@H]3NC(=O)[C@H]4NC(=O)[C@@H](Cc5ccc(c(Cl)c5)Oc5cc3cc(c5O)Oc3ccc(cc3Cl)[C@H]2O[C@@H]2O[C@H](CO)[C@@H](O)[C@H](O)[C@H]2NC(C)=O)NC(=O)[C@H](N=[N+]=[N-])c2ccc(O)c(c2)Oc2cc(O)cc4c2)c2ccc(O)c(c2)-c2c(O)cc(O)cc21` is ____. 4

###

Reported MIC values follow for various compounds
Test system: Staphylococcus aureus
Test: Antibacterial activity against methicillin-sensitive Staphylococcus aureus ATCC 29213 after 18 hrs by broth microdilution method
Format: functional
Conditions: ATCC 29213, 18 h
Express your answer in µg/mL, writing the number without its unit.

| smilesRepresentation | MIC (µg/mL) |
| --- | --- |
| COC(=O)[C@@H]1NC(=O)[C@H]2NC(=O)[C@H](NC(=O)[C@@H]3NC(=O)[C@H]4NC(=O)[C@@H](Cc5ccc(c(Cl)c5)Oc5cc3cc(c5O)Oc3ccc(cc3Cl)[C@H]2O[C@@H]2O[C@H](CO)[C@@H](O)[C@H](O)[C@H]2NC(C)=O)NC(=O)[C@H](N=[N+]=[N-])c2ccc(O)c(c2)Oc2cc(O)cc4c2)c2ccc(O)c(c2)-c2c(O)cc(O)cc21 | 4 |

The record that follows has no MIC shown yet.
Fill blank: measured MIC of the compound `CCCCCCCCCCOCc1cn([C@H]2C(=O)N[C@@H]3Cc4ccc(c(Cl)c4)Oc4cc5cc(c4O)Oc4ccc(cc4Cl)[C@@H](O)[C@@H]4NC(=O)[C@H](NC(=O)[C@@H]5NC(=O)[C@@H](NC3=O)c3cc(O)cc(c3)Oc3cc2ccc3O)c2ccc(O)c(c2)-c2c(O)cc(O)cc2[C@H](C(=O)OC)NC4=O)nn1` is ____. 128
